Entry source: ChEMBL document CHEMBL1143122

Assign GI50 to each entry below.
test system: HCT-116; assay: Antiproliferative activity against human HCT116 cells after 48 hrs; format: functional; details: HCT-116, 48 h

QUERY: // lookup GI50 | system=HCT-116 | key= CCCCCCCCCCCCCCN[C@H](CO)[C@H](O)c1ccccc1
RESULT: 1.74 µM

QUERY: // fetch HCT-116 GI50 for C[C@@H](NC(=O)CCCCCCCCCCCCCCC[n+]1ccccc1)[C@@H](O)c1ccccc1.[Br-]
RESULT: 3.39 µM

QUERY: Recall the recorded GI50 for CCCCCCCCCCCCCCN[C@H](CO)[C@H](O)c1ccc([N+](=O)[O-])cc1.Cl with HCT-116 and state it.
RESULT: 1.95 µM

QUERY: Kindly state the measured GI50 obtained for CCCCCCCCCCCCCCN[C@@H](CO)Cc1ccccc1 with HCT-116.
RESULT: 2.04 µM

QUERY: What reported GI50 corresponds to C[C@H](NC(=O)CCCCCCCCCCCCCCC[n+]1ccccc1)[C@H](O)c1ccccc1.[Br-] on HCT-116?
RESULT: 3.47 µM

QUERY: Param readout= GI50; system= HCT-116; entry= CCCCCCCCCCCCCCN[C@@H](C)[C@H](O)c1ccccc1 ; returns value.
RESULT: 1.86 µM

QUERY: Give recorded GI50 with HCT-116 for the following compound: CCCCCCCCCCCCCCN[C@H](C)[C@@H](O)c1ccccc1.Cl
RESULT: 1.86 µM

###

tested on: SNB-75; experiment: Antiproliferative activity against human SNB75 cells after 48 hrs; assay type: functional; conditions: SNB-75, 48 h, read-out: Log LC50 (the source's name) (converted)
metric: CC50 (µM)
Dear colleague, please return just the value in µM, with no unit written.

QUERY: # query: CC50 of entry CCCCCCCCCCCCCCN[C@H](CO)[C@H](O)c1ccccc1
RESULT: 27.5

QUERY: Would you kindly share the measured CC50 for C[C@@H](NC(=O)CCCCCCCCCCCCCCC[n+]1ccccc1)[C@@H](O)c1ccccc1.[Br-] ?
RESULT: 9.77

QUERY: So what does the record say about CC50 for CCCCCCCCCCCCCCN[C@@H](CO)Cc1ccccc1 ?
RESULT: 14.1

QUERY: Requested read-out: CC50. Entry: CCCCCCCCCCCCCCN[C@H](CO)[C@H](O)c1ccc([N+](=O)[O-])cc1.Cl
RESULT: 60.3

QUERY: Endpoint output: CC50 of CCCCCCCCCCCCCCN[C@H](C)[C@@H](O)c1ccccc1.Cl . Value?
RESULT: 7.08

QUERY: Query: CC50; subject: C[C@H](NC(=O)CCCCCCCCCCCCCCC[n+]1ccccc1)[C@H](O)c1ccccc1.[Br-]
RESULT: 38

QUERY: So what's the measured CC50 for this one? CCCCCCCCCCCCCCN[C@@H](C)[C@H](O)c1ccccc1
RESULT: 6.61

###

system: KM12; experiment: Antiproliferative activity against human KM12 cells after 48 hrs; format: functional; conditions: Homo sapiens, KM12, 48 h; read-out: Log TGI (converted)
metric: TGI (µM)
Record the value in µM, omitting the unit from your answer.

QUERY: So what does the record say about TGI for C[C@@H](NC(=O)CCCCCCCCCCCCCCC[n+]1ccccc1)[C@@H](O)c1ccccc1.[Br-] ?
RESULT: 3.16

QUERY: State the recorded TGI for this entry: CCCCCCCCCCCCCCN[C@@H](CO)Cc1ccccc1
RESULT: 3.39

QUERY: Consider the molecule shown here: CCCCCCCCCCCCCCN[C@H](CO)[C@H](O)c1ccc([N+](=O)[O-])cc1.Cl What is its recorded TGI?
RESULT: 3.39

QUERY: Which TGI reading was recorded for the molecule CCCCCCCCCCCCCCN[C@H](C)[C@@H](O)c1ccccc1.Cl ?
RESULT: 3.16

QUERY: Need TGI of CCCCCCCCCCCCCCN[C@H](CO)[C@H](O)c1ccccc1 , thanks.
RESULT: 3.31

QUERY: Which TGI is reported for this molecule? C[C@H](NC(=O)CCCCCCCCCCCCCCC[n+]1ccccc1)[C@H](O)c1ccccc1.[Br-]
RESULT: 11.5
